- Tested on: Jurkat (clone E6-1) cells with NFAT luciferase reporter
- ASSAY: Jurkat reporter assay (NFAT Luciferase)
- Type: cell-based
- TEST_SETTINGS: Homo sapiens; Jurkat NFAT luciferase reporter cells, anti-CD3 stimulation, 6 hr; read-out: Jurkat NFAT EC50
pEC50: −log10 of the molar value.
QUANTITY_KIND: pEC50

{"MOLECULE": "CO[C@@H](C)CNCc1cc(C)c2oc(-c3cc(-c4ccc(F)cc4-c4nncn4C)cc(C4CC4)n3)nc2c1", "QUANTITY_KIND": "pEC50", "RESULT": "> 6.70"}
{"MOLECULE": "Cn1cnnc1-c1cc(F)ccc1-c1cccc(-c2nc3cc(CN4CC(C)(O)C4)cc(C(F)(F)F)c3o2)c1", "QUANTITY_KIND": "pEC50", "RESULT": "6.00 to 6.70"}
{"MOLECULE": "Cn1cnnc1-c1cc(F)ccc1-c1cccc(-c2nc3cc(CNCC(C)(C)C#N)cc(C(F)(F)F)c3o2)c1", "QUANTITY_KIND": "pEC50", "RESULT": "6.00 to 6.70"}
{"MOLECULE": "Cn1cnnc1-c1cc(F)ccc1-c1cccc(-c2nc3cc(CNCC4(O)CC(F)(F)C4)cc(C(F)(F)F)c3[nH]2)c1", "QUANTITY_KIND": "pEC50", "RESULT": "> 6.70"}
{"MOLECULE": "COc1cc(CN(C)[C@@H]2CCC[C@@H]2O)cc2nc(-c3cccc(-c4ccc(F)cc4-c4nncn4C)c3)oc12", "QUANTITY_KIND": "pEC50", "RESULT": "6.00 to 6.70"}
{"MOLECULE": "COCCNCc1cc(C2CC2)c2oc(-c3cccc(-c4ccc(F)cc4-c4nncn4C)c3)nc2c1", "QUANTITY_KIND": "pEC50", "RESULT": "> 6.70"}
{"MOLECULE": "Cn1cnnc1-c1cc(Cl)ccc1-c1cccc(-c2nc3cc(CN[C@@H]4CCC[C@@H]4O)cc(C(F)(F)F)c3o2)c1", "QUANTITY_KIND": "pEC50", "RESULT": "> 6.70"}
{"MOLECULE": "Cn1cnnc1-c1cc(F)ccc1-c1cccc(-c2nc3cc([C@H](CO)N4CCC4)cc(C(F)(F)F)c3o2)c1 (single isomer, unassigned)", "QUANTITY_KIND": "pEC50", "RESULT": "5.00 to 6.00"}
{"MOLECULE": "COC(=O)C1(c2cc(F)c3oc(-c4cc(-c5ccc(F)cc5-c5nncn5C)cc(C5CC5)n4)nc3c2)CC1", "QUANTITY_KIND": "pEC50", "RESULT": "5.00 to 6.00"}
{"MOLECULE": "CN(C)CC(=O)NCc1cc(C(F)(F)F)c2oc(-c3cccc(-c4ccc(F)cc4-c4nncn4C)c3)nc2c1", "QUANTITY_KIND": "pEC50", "RESULT": "5.00 to 6.00"}
{"MOLECULE": "Cc1cc(C(C)(C)N)cc2nc(-c3cc(-c4ccc(F)cc4-c4nncn4C)cc(C4CC4)n3)oc12", "QUANTITY_KIND": "pEC50", "RESULT": "5.00 to 6.00"}
{"MOLECULE": "C[C@H]1CCCN(Cc2cc(C(F)(F)F)c3oc(-c4cccc([C@]5(c6nncn6C)C[C@@H](C)C5)c4)nc3c2)C1", "QUANTITY_KIND": "pEC50", "RESULT": "5.00 to 6.00"}
{"MOLECULE": "C[C@H]1CCCN(Cc2cc(C(F)(F)F)c3[nH]c(-c4cccc(-c5ccc(F)cc5-c5nncn5C)c4)nc3c2)C1", "QUANTITY_KIND": "pEC50", "RESULT": "6.00 to 6.70"}
{"MOLECULE": "C[C@@H](c1cc(C(F)(F)F)c2[nH]c(-c3cccc(C4(Cc5nncn5C)COC4)c3)nc2c1)N1CCC2(CC2)C1", "QUANTITY_KIND": "pEC50", "RESULT": "5.00 to 6.00"}
{"MOLECULE": "Cn1cnnc1-c1cc(F)ccc1-c1cccc(-c2nc3cc(CNCC(C)(C)O)cc(C(F)(F)F)c3[nH]2)c1", "QUANTITY_KIND": "pEC50", "RESULT": "6.00 to 6.70"}
{"MOLECULE": "COC(C)(C)CNCc1cc(C(F)(F)F)c2oc(-c3cccc(-c4ccc(F)cc4-c4nncn4C)c3)nc2c1", "QUANTITY_KIND": "pEC50", "RESULT": "6.00 to 6.70"}

Measured values drawn from patent US20250163038A1 for this set.
